B1: Azoarcus group I ribozyme (parent)
chain: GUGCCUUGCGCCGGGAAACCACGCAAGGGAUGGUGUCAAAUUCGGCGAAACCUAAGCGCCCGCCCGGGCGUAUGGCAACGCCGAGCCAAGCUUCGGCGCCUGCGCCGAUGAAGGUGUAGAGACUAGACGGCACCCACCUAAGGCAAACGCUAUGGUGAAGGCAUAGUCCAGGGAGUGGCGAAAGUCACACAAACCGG

Variants of: B1
protocol_details: reverse-splicing fitness (ratio to wild type); higher = more active; in vitro selection; Mg2+ level not given
Provide the recorded reverse-splicing fitness for the entries that follow.
Respond using a number only.

The variant listed as C82A A111G A120C A145U C150U C169A U176G has a reported reverse-splicing fitness of 0.00591

The variant listed as C82A A111C A120U C150A C169A U176A has a reported reverse-splicing fitness of 0.00546

The variant listed as C82U A111G A120U A145U C150G U176A has a reported reverse-splicing fitness of 0.00344

The variant listed as C82G A120C A145C C150U C169A has a reported reverse-splicing fitness of 0.008

The variant listed as A111U A120C A145U C150A C169U U176A has a reported reverse-splicing fitness of 0.0185

The variant listed as C82G A111C A120U A145G C169U U176C has a reported reverse-splicing fitness of 0.00468

The variant listed as C82A A111C A120U A145U C150G U176A has a reported reverse-splicing fitness of 0.00392

The variant listed as C82A A120C A145G C150A C169U U176C has a reported reverse-splicing fitness of 0.0163

The variant listed as C82G A111G A120U A145G C150A C169A U176A has a reported reverse-splicing fitness of 0.00843

The variant listed as A111G A145C C150G C169G U176G has a reported reverse-splicing fitness of 0.00435

The variant listed as C82U A111U A120U A145U C169A U176C has a reported reverse-splicing fitness of 0.00301

The variant listed as C82A A111G A145G C169U has a reported reverse-splicing fitness of 0.0126

The variant listed as A111G A120G A145G C150G U176C has a reported reverse-splicing fitness of 0.0227

The variant listed as A111G A120G C169U U176A has a reported reverse-splicing fitness of 0.0845

The variant listed as C82G A111G A120C A145G has a reported reverse-splicing fitness of 0.0871

The variant listed as C82A A111C A120C A145U U176A has a reported reverse-splicing fitness of 0.0147

The variant listed as C82A A145C C169U U176G has a reported reverse-splicing fitness of 0.00467

The variant listed as A120C A145C C150U C169U has a reported reverse-splicing fitness of 0.194

The variant listed as A111C A120G A145C has a reported reverse-splicing fitness of 0.149

The variant listed as C82A C150G C169U U176A has a reported reverse-splicing fitness of 0.00724

The variant listed as C82A A145U C150G C169U U176A has a reported reverse-splicing fitness of 0.00877

The variant listed as C82A A120G A145G C169U U176G has a reported reverse-splicing fitness of 0.0046

Just for reference, the RNAGym collection of RNA variant scans (doi:10.1093/molbev/msab373) is where these values come from.
